The following binders are shown together with reported Efficacy (ratio of bound Angiopoietin-2 with mAb (30 µg/ml) versus without mAb) values.
# assayed.target: T1, biotinylated recombinant human Angiopoietin-2 (R&D Systems, Inc. Cat. No. BT623) (human, UniProt O15123 19-496, limits assumed, biotinylated (sites not given))
# T1 construct: Bought reagent; also called Ang-2; Ang2
# T1 sequence (looked up): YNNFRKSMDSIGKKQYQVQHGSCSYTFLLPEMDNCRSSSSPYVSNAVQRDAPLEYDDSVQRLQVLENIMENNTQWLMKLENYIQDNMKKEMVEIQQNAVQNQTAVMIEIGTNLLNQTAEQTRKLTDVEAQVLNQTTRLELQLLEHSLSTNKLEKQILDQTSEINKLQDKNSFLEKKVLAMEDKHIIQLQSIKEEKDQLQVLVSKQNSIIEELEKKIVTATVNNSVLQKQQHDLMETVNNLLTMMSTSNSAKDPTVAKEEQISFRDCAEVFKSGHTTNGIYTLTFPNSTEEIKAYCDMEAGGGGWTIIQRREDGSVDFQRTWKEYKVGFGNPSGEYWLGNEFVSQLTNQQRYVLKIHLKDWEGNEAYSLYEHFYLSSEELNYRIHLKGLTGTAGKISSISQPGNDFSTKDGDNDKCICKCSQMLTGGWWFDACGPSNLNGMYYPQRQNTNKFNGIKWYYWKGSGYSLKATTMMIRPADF
# assay.details: competitive binding ELISA: biotinylated Angiopoietin-2 on plate-coated Tie-2/Fc, purified mAb
Number in ratio, nothing else.

Efficacy (ratio of bound Angiopoietin-2 with mAb (30 µg/ml) versus without mAb) reading for anti-Ang-2 monoclonal antibody 3.31.2 (antibody, V domains shown, Fully human IgG kappa from XenoMouse hybridoma (strains XMG2 and XMG4); IgG purified from hybridoma supernatant; also called mAb 3.31.2) VH: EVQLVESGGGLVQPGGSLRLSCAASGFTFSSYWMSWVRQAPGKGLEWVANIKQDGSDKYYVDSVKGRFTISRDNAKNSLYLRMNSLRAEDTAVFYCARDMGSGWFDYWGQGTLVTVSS VL: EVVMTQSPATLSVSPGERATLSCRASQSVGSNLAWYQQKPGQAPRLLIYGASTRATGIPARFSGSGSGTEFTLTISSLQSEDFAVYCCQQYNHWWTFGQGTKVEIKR : 0.375

Short answer for anti-Ang-2 monoclonal antibody 3.3.2 (antibody, V domains shown, Fully human IgG kappa from XenoMouse hybridoma (strains XMG2 and XMG4); IgG purified from hybridoma supernatant; also called mAb 3.3.2) VH: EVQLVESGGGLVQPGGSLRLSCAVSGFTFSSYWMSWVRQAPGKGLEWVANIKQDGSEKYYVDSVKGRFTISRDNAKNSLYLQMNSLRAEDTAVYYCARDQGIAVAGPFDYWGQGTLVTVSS VL: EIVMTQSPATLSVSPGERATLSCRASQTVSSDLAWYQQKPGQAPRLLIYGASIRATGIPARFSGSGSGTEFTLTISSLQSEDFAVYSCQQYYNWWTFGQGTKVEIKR : Efficacy (ratio of bound Angiopoietin-2 with mAb (30 µg/ml) versus without mAb) was 0.388

Consider the additional binder presented here.
Efficacy (ratio of bound Angiopoietin-2 with mAb (30 µg/ml) versus without mAb) for anti-Ang-2 monoclonal antibody 5.88.3 (antibody, V domains shown, Fully human IgG kappa from XenoMouse hybridoma (strains XMG2 and XMG4); IgG purified from hybridoma supernatant; also called mAb 5.88.3) VH: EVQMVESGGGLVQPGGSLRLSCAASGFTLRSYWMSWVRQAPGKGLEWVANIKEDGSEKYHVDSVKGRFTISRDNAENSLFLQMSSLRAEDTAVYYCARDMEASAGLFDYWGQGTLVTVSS VL: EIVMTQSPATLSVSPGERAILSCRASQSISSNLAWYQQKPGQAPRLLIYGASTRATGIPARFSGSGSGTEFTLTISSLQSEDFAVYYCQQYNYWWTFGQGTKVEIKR is 0.403
